Where do these numbers come from? They come from patent US10407381B2.

target: 5-HT2B (Homo sapiens, UniProt P41595); test: Calcium flux (FLIPR) assay, human 5-HT2B stably expressed in HEK-293 (Flp-In-293) cells; conditions: EC50, nM 5-HT2B, human 5-HT2B in HEK-293 cells, NA = no activity at 10 μM
Sequence (P41595 whole entry): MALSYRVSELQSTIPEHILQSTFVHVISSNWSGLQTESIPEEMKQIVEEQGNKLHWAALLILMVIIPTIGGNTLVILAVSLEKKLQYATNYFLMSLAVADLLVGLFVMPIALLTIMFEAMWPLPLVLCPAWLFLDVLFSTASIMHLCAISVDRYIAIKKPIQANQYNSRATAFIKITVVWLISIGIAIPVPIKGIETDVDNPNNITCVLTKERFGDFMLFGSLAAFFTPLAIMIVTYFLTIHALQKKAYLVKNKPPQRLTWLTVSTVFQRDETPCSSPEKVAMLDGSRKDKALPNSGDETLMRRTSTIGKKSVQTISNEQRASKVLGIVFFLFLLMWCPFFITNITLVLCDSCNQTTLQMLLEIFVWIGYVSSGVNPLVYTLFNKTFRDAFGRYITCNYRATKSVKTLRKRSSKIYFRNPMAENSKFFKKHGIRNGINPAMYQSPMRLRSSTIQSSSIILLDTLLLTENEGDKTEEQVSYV
Threshold-based label: EC50 under 1000 nM gives True, EC50 not under 1000 nM gives False.

Worked examples follow.
1. C=CCOc1ccc(Cl)cc1C1CC1CN (single isomer, unassigned; (-)) [(−)-Example 23]	False
2. NCC1CC1c1cc(Cl)ccc1OCCF (single isomer, unassigned; (+)) [(+)-Example 19]	True

Query: Confirm or reject: EC50 of NCC1CC1c1cc(Cl)ccc1OCC(F)F (single isomer, unassigned; (+)) [(+)-Example 21] lies strictly below 1000 nM
Response: True

Query: Input NCC1CC1c1cc(Cl)c(Cl)cc1OCCF (single isomer, unassigned; (+)) [(+)-Example 34] ; condition: EC50 strictly below 1000 nM. Does it hold?
Response: False

Query: Please let me know if CCOc1ccc(Cl)c(F)c1C1CC1CN (single isomer, unassigned; (-)) [(−)-Example 30] shows EC50 below 1000 nM.
Response: False

Query: Please determine if C#CCOc1ccc(Cl)cc1C1CC1CN (single isomer, unassigned; (-)) [(−)-Example 26] is below 1000 nM in terms of EC50.
Response: False

====

target: UniProtKB P28335; assay: Calcium flux (FLIPR) assay, human 5-HT2C-INI stably expressed in HEK-293 (Flp-In-293) cells; details: read-out: EC50, nM 5-HT2C; human 5-HT2C-INI in HEK-293 cells, FLIPR; NA = no activity at 10 μM
// thresholds for EC50 classes: bottom bin: < 10 nM; middle bin: ≥ 10 nM and < 20 nM; top bin: ≥ 20 nM

Some solved entries appear below for comparison.
1. COc1cc(Cl)c(Cl)cc1C1CC1CN (single isomer, unassigned; (+)) [(+)-Example 33]	bottom bin
2. C=CCOc1ccc(Cl)c(Cl)c1C1CC1CN (single isomer, unassigned; (-)) [(−)-Example 39]	top bin
3. NCC1CC1c1c(OCCF)ccc(F)c1Cl (single isomer, unassigned; (-)) [(−)-Example 52]	top bin
4. C=CCOc1ccc(Cl)c(Cl)c1C1CC1CN (single isomer, unassigned; (+)) [(+)-Example 39]	top bin
5. COc1ccc(F)c(Cl)c1C1CC1CN (single isomer, unassigned; (+)) [(+)-Example 50]	top bin

Query: Exam item: assign COc1cc(Cl)c(Cl)cc1C1CC1CN (single isomer, unassigned; (-)) [(−)-Example 33] to the correct category.
Response: middle bin

Query: Band for COc1ccc(Cl)c(Cl)c1C1CC1CN (single isomer, unassigned; (+)) [(+)-Example 36] ?
Response: top bin

Query: Into which bin does this compound go? COc1ccc(F)c(Cl)c1C1CC1CN (single isomer, unassigned; (-)) [(−)-Example 50]
Response: bottom bin

====

Quick reference: EC50 of the listed items.
molecular target: human 5-HT2C-INI (Homo sapiens, UniProt P28335); experiment: Calcium flux (FLIPR) assay, human 5-HT2C-INI stably expressed in HEK-293 (Flp-In-293) cells; conditions: EC50, nM 5-HT2C, human 5-HT2C-INI in HEK-293 cells, FLIPR; NA = no activity at 10 μM
Sequence (P28335 33-458): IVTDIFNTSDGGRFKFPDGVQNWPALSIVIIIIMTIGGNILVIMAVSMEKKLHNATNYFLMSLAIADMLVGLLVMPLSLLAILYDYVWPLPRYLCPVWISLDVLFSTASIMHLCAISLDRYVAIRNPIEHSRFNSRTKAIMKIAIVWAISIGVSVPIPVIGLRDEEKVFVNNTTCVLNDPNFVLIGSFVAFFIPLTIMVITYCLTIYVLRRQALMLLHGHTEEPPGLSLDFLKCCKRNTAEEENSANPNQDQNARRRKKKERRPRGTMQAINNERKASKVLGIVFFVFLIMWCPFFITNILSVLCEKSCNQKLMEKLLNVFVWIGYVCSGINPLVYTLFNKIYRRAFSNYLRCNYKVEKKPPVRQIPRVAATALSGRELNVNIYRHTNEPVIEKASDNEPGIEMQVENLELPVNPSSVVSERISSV
The answer is to be given in nM; state only the numeric part.

1. CCOc1ccc(F)c(Cl)c1C1CC1CN (single isomer, unassigned; (+)) [(+)-Example 51]	22

Query: Please report the measured EC50 for CCOc1cc(F)c(F)cc1C1CC1CN (single isomer, unassigned; (+)) [(+)-Example 41]
Response: 2.9

Query: Look up and state reported EC50 for NCC1CC1c1cc(F)ccc1OCCF (single isomer, unassigned; (-)) [(−)-Example 10]
Response: 514

Query: Indicate the recorded EC50 value for this molecule: CCOc1ccc(Cl)c(Cl)c1C1CC1CN (single isomer, unassigned; (+)) [(+)-Example 37]
Response: 91

====

molecular target: 5-HT2B (Homo sapiens, UniProt P41595); experiment: Calcium flux (FLIPR) assay, human 5-HT2B stably expressed in HEK-293 (Flp-In-293) cells; conditions: EC50, nM 5-HT2B, human 5-HT2B in HEK-293 cells, NA = no activity at 10 μM
The class of a record is decided solely by its measured EC50; consult group 1: < 900 nM; group 2: ≥ 900 nM and < 5000 nM; group 3: ≥ 5000 nM

1. COc1cc(F)c(Cl)cc1[C@@H]1C[C@H]1CN (single isomer, unassigned) [(+)-Example 1]	group 1

Query: Place this compound in its band: C=CCOc1cc(F)c(Cl)cc1C1CC1CN (single isomer, unassigned; (-)) [(−)-Example 5]
Response: group 2

Query: Where would C=C(F)COc1ccc(Cl)cc1C1CC1CN (single isomer, unassigned; (-)) [(−)-Example 25] land among the classes by reported EC50?
Response: group 3

Query: Looking at C#CCOc1ccc(Cl)cc1C1CC1CN (single isomer, unassigned; (+)) [(+)-Example 26] , which class would you pick?
Response: group 2

====

biological target: 5-HT2A (Homo sapiens); test: Calcium flux (FLIPR) assay, human 5-HT2A stably expressed in HEK-293 (Flp-In-293) cells
Sequence (P28223 whole entry): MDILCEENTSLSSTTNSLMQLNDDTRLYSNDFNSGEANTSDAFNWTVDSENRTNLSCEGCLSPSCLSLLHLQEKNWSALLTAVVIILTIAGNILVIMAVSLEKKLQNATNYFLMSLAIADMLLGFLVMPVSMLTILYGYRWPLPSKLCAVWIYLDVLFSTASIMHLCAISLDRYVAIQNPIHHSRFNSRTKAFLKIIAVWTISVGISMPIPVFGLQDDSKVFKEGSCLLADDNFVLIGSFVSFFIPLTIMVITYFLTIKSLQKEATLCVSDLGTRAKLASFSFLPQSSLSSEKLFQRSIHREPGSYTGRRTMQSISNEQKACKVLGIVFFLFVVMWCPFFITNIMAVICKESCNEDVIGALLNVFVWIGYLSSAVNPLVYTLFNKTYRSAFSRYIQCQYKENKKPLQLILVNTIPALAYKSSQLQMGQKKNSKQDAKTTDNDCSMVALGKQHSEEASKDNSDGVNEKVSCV
Readout type: pEC50
FYI, pEC50 means -log10 of a concentration in mol per litre.

Below, each entry is followed by its recorded pEC50 result.
1) NCC1CC1c1cc(Cl)c(Cl)cc1OCCF (single isomer, unassigned; (+)) [(+)-Example 34]	7.04
2) NCC1CC1c1c(OCCF)ccc(Cl)c1Cl (single isomer, unassigned; (+)) [(+)-Example 38]	6.02

Query: Supply pEC50 measured with 5-HT2A (Homo sapiens) for C=CCOc1ccc(Cl)c(F)c1C1CC1CN (single isomer, unassigned; (-)) [(−)-Example 32] .
Response: 5.97

Query: Recall the reported pEC50 of C=C(C)COc1ccc(Cl)cc1C1CC1CN (single isomer, unassigned; (+)) [(+)-Example 24] when tested on 5-HT2A (Homo sapiens).
Response: 6.04

====

biological target: UniProt P28335; assay: Calcium flux (FLIPR) assay, human 5-HT2C-INI stably expressed in HEK-293 (Flp-In-293) cells; details: EC50, nM 5-HT2C, human 5-HT2C-INI in HEK-293 cells, FLIPR; NA = no activity at 10 μM
Could you please mark fulfilled for values of EC50 below 80 nM and not fulfilled for values at or above it?

1) NCC1CC1c1cc(Cl)ccc1OCCCF (single isomer, unassigned; (-)) [(−)-Example 20]	not fulfilled
2) CCOc1ccc(F)c(F)c1C1CC1CN (single isomer, unassigned; (-)) [(−)-Example 46]	not fulfilled
3) NCC1CC1c1c(OCCF)ccc(F)c1Cl (single isomer, unassigned; (+)) [(+)-Example 52]	fulfilled
4) C=CCOc1cc(Cl)c(Cl)cc1C1CC1CN (single isomer, unassigned; (-)) [(−)-Example 35]	not fulfilled
5) CCOc1ccc(F)c(F)c1C1CC1CN (single isomer, unassigned; (+)) [(+)-Example 46]	fulfilled
6) C#CCOc1ccc(Cl)cc1C1CC1CN (single isomer, unassigned; (-)) [(−)-Example 26]	not fulfilled
7) C=CCOc1ccc(Cl)cc1C1CC1CN (single isomer, unassigned; (+)) [(+)-Example 23]	fulfilled

Query: Consider CCCOc1ccc(Cl)cc1C1CC1CN (single isomer, unassigned; (+)) [(+)-Example 12] . Does its EC50 lie strictly below 80 nM?
Response: not fulfilled

====

target: UniProt:P28223; test: Calcium flux (FLIPR) assay, human 5-HT2A stably expressed in HEK-293 (Flp-In-293) cells; conditions: EC50, nM 5-HT2A, human 5-HT2A in HEK-293 cells, FLIPR; NA = no activity at 10 μM
Readout type: EC50 (nM)
Could you give me the number in nM? Just the number is fine.

Worked cases, answers included:
1. COc1cc(F)c(F)cc1[C@@H]1C[C@H]1CN (single isomer, unassigned) [(−)-Example 40]	511
2. CCCOc1ccc(F)cc1C1CC1CN (single isomer, unassigned; (+)) [(+)-Example 7]	1020
3. CCOc1ccc(F)c(F)c1C1CC1CN (single isomer, unassigned; (-)) [(−)-Example 46]	2150
4. NCC1CC1c1cc(Cl)ccc1OCCF (single isomer, unassigned; (+)) [(+)-Example 19]	1480
5. CC(C)Oc1ccc(Cl)cc1C1CC1CN (single isomer, unassigned; (+)) [(+)-Example 14]	4000
6. CCOc1ccc(Cl)cc1C1CC1CN (single isomer, unassigned; (+)) [(+)-Example 11]	1210
7. CCOc1ccc(Cl)c(Cl)c1C1CC1CN (single isomer, unassigned; (-)) [(−)-Example 37]	625
8. C=CCOc1ccc(F)cc1C1CC1CN (single isomer, unassigned; (+)) [(+)-Example 8]	374
9. C#CCOc1cc(F)c(Cl)cc1C1CC1CN (single isomer, unassigned; (+)) [(+)-Example 6]	628
10. CCOc1ccc(Cl)c(F)c1C1CC1CN (single isomer, unassigned; (+)) [(+)-Example 30]	820

Query: Name the recorded EC50 of C=CCOc1ccc(F)cc1C1CC1CN (single isomer, unassigned; (-)) [(−)-Example 8] , assay system UniProt:P28223.
Response: 697

Query: Print UniProt:P28223 EC50 for CCOc1ccc(Cl)c(F)c1C1CC1CN (single isomer, unassigned; (-)) [(−)-Example 30] .
Response: 819

Query: Look up and report EC50, with UniProt:P28223 as system, for CCOc1cc(F)c(F)cc1C1CC1CN (single isomer, unassigned; (-)) [(−)-Example 41]
Response: 778

Query: Provide the reported EC50 (system: UniProt:P28223) for CCOc1ccc(Cl)c(Cl)c1C1CC1CN (single isomer, unassigned; (+)) [(+)-Example 37]
Response: 976

Query: # return EC50 for CCCOc1ccc(F)c(F)c1C1CC1CN (single isomer, unassigned; (+)) [(+)-Example 48] , test system: UniProt:P28223
Response: 2070
